test system: primary rat mixed cortical cells; assay: In vitro myelination assay (MBP positive myelin strands, fold myelin pixels above background); type: cell-based; conditions: Rattus norvegicus, 10.0 μM compound; read-out: Fold myelin pixels above background relative to baseline of no added compound
assay_endpoint: fold induction at 10 µM

Challenge: Can you look up the measured fold induction at 10 µM of Cc1cc(Nc2ncn(-c3cc(F)cc(F)c3)n2)cc(N2CCCC2CN2CCCC2CO)c1 (stereo not shown) [Compound 1077] for me?
Response given: ≤ 1

Challenge: Can you look up the measured fold induction at 10 µM of Cc1cc(Nc2ncn(-c3cnccn3)n2)cc(N2CCCN(C3COC3)CC2)c1 [Compound 818] for me?
Response given: 100 to 1000

Challenge: Can you look up the measured fold induction at 10 µM of Cc1cc(Nc2ncn(-c3cccc(C(F)(F)F)c3)n2)nc(N2CCOCC2)c1 [Compound 837] for me?
Response given: 10 to 100

Challenge: Can you look up the measured fold induction at 10 µM of Cc1cc(CN2CCN(C3COC3)CC2)cc(Nc2ncn(-c3ccc(F)c(F)c3)n2)c1 [Compound 840] for me?
Response given: 10 to 100

Challenge: Can you look up the measured fold induction at 10 µM of Cc1cc(NCC2CN(CC(C)C)CCO2)cc(Nc2ncn(-c3cc(F)cc(F)c3)n2)c1 (stereo not shown) [Compound 903] for me?
Response given: 1 to 10

Challenge: Can you look up the measured fold induction at 10 µM of Cc1cc(Nc2ncn(-c3ccc(F)c(F)c3)n2)cc(N2CC3(C2)CN(C(C)C)C3)c1 [Compound 977] for me?
Response given: ≤ 1

Challenge: Can you look up the measured fold induction at 10 µM of [2H]C1([2H])N(c2cc(Nc3ncn(-c4cc(F)cc(F)c4)n3)cc(C(F)(F)F)c2)C([2H])([2H])C([2H])([2H])C([2H])([2H])C1([2H])[2H] [Compound 1032] for me?
Response given: 1 to 10

----------
system: primary rat mixed cortical cells; assay: In vitro myelination assay (MBP positive myelin strands, fold myelin pixels above background); type: cell-based; settings: Rattus norvegicus, 10.0 μM compound; read-out: Fold myelin pixels above background relative to baseline of no added compound
assay_endpoint: fold induction at 10 µM

Challenge: Can you look up the measured fold induction at 10 µM of Cc1cc(Nc2ncn(-c3cc(F)cc(F)c3)n2)cc(N2CCC(OC(C)C)CC2)c1 for me?
Response given: 10 to 100

Challenge: Can you look up the measured fold induction at 10 µM of Cc1cc(Nc2ncn(-c3cc(F)cc(F)c3)n2)cc(N2CCN(C3CCCC3O)CC2)c1 (stereo not shown) for me?
Response given: ≤ 1

Challenge: Can you look up the measured fold induction at 10 µM of Cc1cc(Nc2ncn(-c3cc(F)cc(F)c3)n2)cc(N2CCC(N3CCCC3)C2)c1 (stereo not shown) for me?
Response given: ≤ 1

Challenge: Can you look up the measured fold induction at 10 µM of [2H]C([2H])([2H])C(=O)N1C([2H])([2H])C([2H])([2H])N(c2cc(C)cc(Nc3ncn(-c4cc(F)cc(F)c4)n3)c2)C([2H])([2H])C1([2H])[2H] for me?
Response given: ≤ 1

----------
Test system: primary rat mixed cortical cells
Assay: In vitro myelination assay (MBP positive myelin strands, fold myelin pixels above background)
Type: cell-based
Conditions: Rattus norvegicus, 1.0 μM compound, relative to baseline of no added compound; read-out: Fold myelin pixels above background
Description: In Vitro Myelination Assay Compounds were screened for their ability to induce myelination using a primary rat mixed cortical cell culture assay, which contains neurons, oligodendrocyte precursor cells, oligodendrocytes, astrocytes and microglia. […] The myelin strands were quantitated using a custom created myelin detection software program. […]
Assign fold induction at 1 µM to each entry below.

Challenge: Can you look up the measured fold induction at 1 µM of Cc1cc(Nc2ncn(-c3ccccc3)n2)cc(N2CC(N3CCOCC3)C2)c1 [Compound 704] for me?
Response given: 10 to 100

Challenge: Can you look up the measured fold induction at 1 µM of Fc1cc(F)cc(-n2cnc(Nc3cc(C(F)F)cc(N4CCCC5(COC5)C4)n3)n2)c1 [Compound 777] for me?
Response given: 1 to 10

Challenge: Can you look up the measured fold induction at 1 µM of COc1cc(F)cc(-n2cnc(Nc3cc(C4CC4)cc(N4CCN(C5COC5)CC4)c3)n2)c1 [Compound 388] for me?
Response given: 10 to 100

Challenge: Can you look up the measured fold induction at 1 µM of Cc1cc(Nc2ncn(-c3cc(F)cc(F)c3)n2)cc(C2CCNCC2O)c1 (centres unmarked) [Compound 438] for me?
Response given: 10 to 100

Challenge: Can you look up the measured fold induction at 1 µM of Cc1cc(Nc2ncn(-c3cc(F)cc(F)c3)n2)cc(N2CCN([C@H]3CCOC3)CC2)c1 [Compound 530] for me?
Response given: 100 to 1000

Challenge: Can you look up the measured fold induction at 1 µM of Cc1cc(Nc2ncn(-c3cc(F)cc(N4CCC(CO)C4)c3)n2)cc(N2CCN(C3COC3)CC2)c1 (centres unmarked) [Compound 480] for me?
Response given: 10 to 100

Challenge: Can you look up the measured fold induction at 1 µM of Cc1cc(Nc2ncn(-c3cc(F)cc(F)c3)n2)nc(NC2CCOC2)c1 (centres unmarked) [Compound 614] for me?
Response given: 1 to 10

Challenge: Can you look up the measured fold induction at 1 µM of COCC1CCN(c2cc(C(F)F)cc(Nc3ncn(-c4cc(F)cc(F)c4)n3)n2)CC1 [Compound 729] for me?
Response given: ≤ 1

Challenge: Can you look up the measured fold induction at 1 µM of CCc1cc(Nc2ncn(-c3ccc(C)c(F)c3)n2)cc(N2CCN(C3COC3)CC2)c1 [Compound 761] for me?
Response given: 1 to 10

Challenge: Can you look up the measured fold induction at 1 µM of Fc1cccc(-n2cnc(Nc3cc(C4CC4)cc(N4CCN(C5COC5)CC4)c3)n2)c1 [Compound 462] for me?
Response given: 100 to 1000

Challenge: Can you look up the measured fold induction at 1 µM of Cc1cc(Nc2ncn(-c3cc(F)cc(F)c3)n2)cc(C2CCCN(C3CC3)C2)c1 (centres unmarked) [Compound 466] for me?
Response given: 100 to 1000

Challenge: Can you look up the measured fold induction at 1 µM of Cc1cc(Nc2ncn(-c3ccc(F)c(F)c3)n2)cc(N2CC(N3CCOCC3)C2)c1 [Compound 720] for me?
Response given: 1 to 10

Challenge: Can you look up the measured fold induction at 1 µM of Cc1cc(Nc2ncn(-c3cc(F)cc(F)c3)n2)cc(N2CCN(C3CC(F)(F)C3)CC2)c1 [Compound 453] for me?
Response given: 10 to 100

Challenge: Can you look up the measured fold induction at 1 µM of Cc1cc(Nc2ncn(-c3cc(F)cc(F)c3)n2)cc(N2CCC3OCCC3C2)c1 (centres unmarked) [Compound 528] for me?
Response given: 100 to 1000

Challenge: Can you look up the measured fold induction at 1 µM of Cc1cc(Nc2ncn(-c3cnccn3)n2)cc(N2CCC(C3COC3)CC2)c1 [Compound 521] for me?
Response given: 100 to 1000

Challenge: Can you look up the measured fold induction at 1 µM of Cc1cc(N2CCOCC2)cc(Nc2ncn(-c3cccnc3)n2)c1F [Compound 451] for me?
Response given: 1 to 10

Challenge: Can you look up the measured fold induction at 1 µM of Cc1cc(Nc2ncn(-c3cncc(C)n3)n2)cc(N2CCN(C3CC3)CC2)c1 [Compound 420] for me?
Response given: 1 to 10

----------
Assign fold induction at 10 µM to each entry below.
test system: primary rat mixed cortical cells; assay: In vitro myelination assay (MBP positive myelin strands, fold myelin pixels above background); type: cell-based; details: Rattus norvegicus, 10.0 μM compound, relative to baseline of no added compound; read-out: Fold myelin pixels above background, 10.0 μM

Challenge: Which fold induction at 10 µM is reported with primary rat mixed cortical cells for this entry: COc1cccc(-n2cnc(Nc3cc(Cl)nc(N4CCOCC4)c3)n2)c1 ?
Response given: 10 to 100

Challenge: Which fold induction at 10 µM is reported with primary rat mixed cortical cells for this entry: CCc1cc(Nc2ncn(-c3ccnc(OC)n3)n2)cc(N2CCN(C3COC3)CC2)c1 ?
Response given: 10 to 100

Challenge: Which fold induction at 10 µM is reported with primary rat mixed cortical cells for this entry: Cc1cc(Nc2ncn(-c3ccccc3)n2)cc(N2CCN(C3CC3)CC2)c1 ?
Response given: 10 to 100

Challenge: Which fold induction at 10 µM is reported with primary rat mixed cortical cells for this entry: COc1cc(-n2cnc(Nc3cc(C)cc(N4CCN(C5COC5)CC4)c3)n2)ncn1 ?
Response given: 100 to 1000

Challenge: Which fold induction at 10 µM is reported with primary rat mixed cortical cells for this entry: Cc1cc(Nc2ncn(-c3cc(F)cc(F)c3)n2)cc(N2CCN(C3CSC3)CC2)c1 ?
Response given: ≤ 1

Challenge: Which fold induction at 10 µM is reported with primary rat mixed cortical cells for this entry: CN1CCN(c2cc(Nc3ncn(-c4ccncc4)n3)cc(C(F)(F)F)c2)CC1 ?
Response given: ≤ 1

Challenge: Which fold induction at 10 µM is reported with primary rat mixed cortical cells for this entry: Cc1cc(Nc2ncn(-c3ccc(C(F)(F)F)cc3)n2)cc(N2CCCC2)c1 ?
Response given: 10 to 100

Challenge: Which fold induction at 10 µM is reported with primary rat mixed cortical cells for this entry: CSc1nccc(-n2cnc(Nc3cc(C)cc(N4CCN(C5COC5)CC4)c3)n2)n1 ?
Response given: ≤ 1
